- target.of.assay: STING (Homo sapiens, UniProt Q86WV6, G230A/H232R/R293Q/R71H)
- Sequence (Q86WV6 whole entry R71H/G230A/H232R/R293Q): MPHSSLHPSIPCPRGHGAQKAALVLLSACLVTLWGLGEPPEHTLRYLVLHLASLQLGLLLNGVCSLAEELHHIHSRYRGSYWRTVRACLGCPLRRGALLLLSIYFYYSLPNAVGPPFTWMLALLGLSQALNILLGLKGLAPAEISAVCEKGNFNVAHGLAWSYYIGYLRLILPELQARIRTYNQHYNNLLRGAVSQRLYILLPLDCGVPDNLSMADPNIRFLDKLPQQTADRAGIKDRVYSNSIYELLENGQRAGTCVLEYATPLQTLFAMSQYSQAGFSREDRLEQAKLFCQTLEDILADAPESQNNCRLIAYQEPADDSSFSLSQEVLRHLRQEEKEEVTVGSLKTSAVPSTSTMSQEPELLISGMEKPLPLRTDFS
- procedure.summary: STING reporter assay: THP1-Dual KO-IFNAR2 cells stimulated with 2′3′cGAMP, luciferase reporter activity
- Assay type: cell-based
- test.parameters: 15 μM 2′3′cGAMP, 24h, class symbols
As shown below, each of these compounds has a reported EC50 value.

compound: O=C(NCCc1ncc(C(F)(F)F)cc1Cl)Nc1ccc2cc[nH]c2c1 [Compound 201]
EC50: 1000 to 5000 nM

Please indicate EC50 recorded for O=C(Nc1ccc2cc[nH]c2c1)NC1CCc2ccc(C(F)(F)F)cc21 (centres unmarked) [Compound 181]
1000 to 5000 nM

Tell us which EC50 value is on record for O=C(NCc1ccc(C(F)(F)F)c(Cl)c1)Nc1ccc2cc[nH]c2c1 [Compound 206]
1000 to 5000 nM

For the compound COc1cc(NC(=O)Nc2ccc(C(F)(F)F)cc2)cc2[nH]ccc12 [Compound 504] , give its reported EC50.
200 to 1000 nM

In one line, give reported EC50 of the entry O=C(Nc1ccc(C(F)(F)F)cc1)Nc1ccc2[nH]cc(NC(=O)Nc3ccc(C(F)(F)F)cc3)c2c1 [Compound 371] .
200 to 1000 nM

Give reported EC50 value for c1cc2ccc(Nc3ccc4ccc(C5CCCCC5)cc4n3)cc2[nH]1 [Compound 389]
1000 to 5000 nM

Could you please provide reported EC50 for FC(F)(F)c1ccc2c(Cl)cc(Nc3ccc4cc[nH]c4c3)nc2c1 [Compound 562] ? Thanks!
5000 to 100000 nM

Give EC50 for the following compound: COc1cc(NC(=O)NCc2cc(Cl)cc(C(F)(F)F)c2)cc2[nH]ccc12 [Compound 503]
200 to 1000 nM

====

- target.of.assay: STING (Homo sapiens, UniProt Q86WV6, G230A/H232R/R293Q/R71H)
- procedure.summary: STING reporter assay: THP1-Dual KO-IFNAR2 cells stimulated with 2′3′cGAMP, luciferase reporter activity
- Type: cell-based
- test.parameters: 15 μM 2′3′cGAMP, 24h, class symbols
# maps each entry to its EC50

Record excerpt, results attached:
compound: N#Cc1cc2cc(NC(=O)Nc3ccc(C(F)(F)F)cc3)ccc2[nH]1
reported.value: 5 to 100 µM

compound: CC(NC(=O)Nc1cnc2cc[nH]c2c1)c1cc(Cl)cc(C(F)(F)F)c1 (stereo not drawn)
reported.value: 5 to 100 µM

compound: O=C(Nc1ccc(F)c(F)c1)Nc1ccc2cc[nH]c2c1
reported.value: 0.2 to 1 µM

State, in one line, measured EC50 of CN(C)C(=O)c1cc(NC(=O)Nc2ccc(C(F)(F)F)cc2)cc2[nH]ccc12
5 to 100 µM

Please report the measured EC50 for FC(F)(F)c1nc(Nc2ccc3cc[nH]c3c2)ccc1Cl
0.2 to 1 µM

Provide measured EC50 value, entry: Cc1nc(Nc2ccc3cc[nH]c3c2)ccc1Cl
5 to 100 µM

Note down EC50 recorded for C1=C(c2ccc3ccc(Nc4ccc5cc[nH]c5c4)nc3c2)CCCC1
1 to 5 µM

Give the value of EC50 reported for the following: c1cnc2nc(Nc3ccc4ccn(-c5ccc6cccnc6n5)c4c3)ccc2c1
1 to 5 µM

Supply EC50 value. Item: O=C(Nc1ccc(C(F)(F)F)cc1)Nc1ccc2[nH]cc(-c3cn[nH]c3)c2c1
5 to 100 µM

The measurements presented in this section are drawn from patent US20230092163A1.
